target: CK1α (Homo sapiens, UniProt P48729+Q96SW2); construct: CSNK1A1-HiBit KI HEK293(LgBit) Cells; host or cells: HEK293(LgBit) knock-in cells; assay: HiBiT degradation assay, CK1α, Procedure A; type: cell-based; details: six hours
Sequence (P48729 whole entry): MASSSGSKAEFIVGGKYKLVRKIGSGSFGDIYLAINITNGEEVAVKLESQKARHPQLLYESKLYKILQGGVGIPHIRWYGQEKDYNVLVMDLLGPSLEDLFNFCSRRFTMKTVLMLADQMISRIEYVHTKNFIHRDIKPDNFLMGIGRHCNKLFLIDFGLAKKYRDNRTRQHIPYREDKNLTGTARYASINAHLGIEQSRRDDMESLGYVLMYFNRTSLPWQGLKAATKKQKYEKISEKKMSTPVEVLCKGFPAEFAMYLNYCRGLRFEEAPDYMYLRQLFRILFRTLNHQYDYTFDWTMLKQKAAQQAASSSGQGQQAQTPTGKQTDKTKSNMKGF
Sequence (Q96SW2 whole entry): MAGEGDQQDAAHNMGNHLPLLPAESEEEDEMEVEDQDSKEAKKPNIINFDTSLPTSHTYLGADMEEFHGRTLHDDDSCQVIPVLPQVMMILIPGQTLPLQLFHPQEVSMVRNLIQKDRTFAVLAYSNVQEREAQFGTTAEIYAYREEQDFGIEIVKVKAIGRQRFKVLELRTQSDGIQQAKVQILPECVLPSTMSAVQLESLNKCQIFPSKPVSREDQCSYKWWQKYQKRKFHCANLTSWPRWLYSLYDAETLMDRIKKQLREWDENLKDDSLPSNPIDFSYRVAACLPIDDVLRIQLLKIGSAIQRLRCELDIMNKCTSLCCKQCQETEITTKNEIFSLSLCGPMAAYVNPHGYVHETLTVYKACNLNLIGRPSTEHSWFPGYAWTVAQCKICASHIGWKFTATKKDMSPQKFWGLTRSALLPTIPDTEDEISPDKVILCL
Sequence (Q16531 whole entry partner): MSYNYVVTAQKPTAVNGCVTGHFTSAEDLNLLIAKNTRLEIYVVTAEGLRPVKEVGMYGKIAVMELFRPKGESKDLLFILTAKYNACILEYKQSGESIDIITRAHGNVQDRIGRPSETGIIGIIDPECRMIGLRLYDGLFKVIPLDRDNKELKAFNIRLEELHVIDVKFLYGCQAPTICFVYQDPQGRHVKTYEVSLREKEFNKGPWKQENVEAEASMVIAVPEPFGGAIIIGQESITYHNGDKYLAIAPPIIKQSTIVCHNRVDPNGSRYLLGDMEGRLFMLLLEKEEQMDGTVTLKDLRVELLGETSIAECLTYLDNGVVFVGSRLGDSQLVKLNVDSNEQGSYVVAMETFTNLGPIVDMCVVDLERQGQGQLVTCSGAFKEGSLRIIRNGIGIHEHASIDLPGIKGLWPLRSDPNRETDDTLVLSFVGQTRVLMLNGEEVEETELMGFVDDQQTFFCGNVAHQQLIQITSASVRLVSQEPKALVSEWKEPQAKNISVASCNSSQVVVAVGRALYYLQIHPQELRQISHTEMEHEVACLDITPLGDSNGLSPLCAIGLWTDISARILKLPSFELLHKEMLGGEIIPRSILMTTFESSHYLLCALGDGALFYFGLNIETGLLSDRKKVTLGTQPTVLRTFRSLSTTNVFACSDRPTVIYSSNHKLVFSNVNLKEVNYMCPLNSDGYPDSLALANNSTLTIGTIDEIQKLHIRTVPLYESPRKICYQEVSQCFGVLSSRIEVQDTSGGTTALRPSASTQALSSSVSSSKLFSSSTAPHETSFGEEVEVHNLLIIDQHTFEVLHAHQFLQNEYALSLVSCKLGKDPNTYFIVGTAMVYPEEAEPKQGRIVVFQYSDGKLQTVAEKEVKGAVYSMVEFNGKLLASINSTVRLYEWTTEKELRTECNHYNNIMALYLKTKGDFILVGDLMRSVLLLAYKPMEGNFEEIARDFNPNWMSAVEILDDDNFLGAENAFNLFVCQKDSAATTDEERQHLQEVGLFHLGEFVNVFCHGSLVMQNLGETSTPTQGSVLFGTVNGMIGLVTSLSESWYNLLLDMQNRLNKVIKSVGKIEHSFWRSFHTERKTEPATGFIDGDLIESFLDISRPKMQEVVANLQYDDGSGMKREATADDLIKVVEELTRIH
readoutKind: CK1α Ymin

>>> result("Cn1cnc(-c2ccc3c(c2)CN(C2CCC(=O)NC2=O)C3=O)c1-c1ccc2[nH]ncc2c1 (centres unmarked)")
"C (C = 0-10% remaining)"
>>> result("O=C1CCC(N2Cc3cc(-c4nc(C(F)F)oc4-c4ccccc4)ccc3C2=O)C(=O)N1 (centres unmarked)")
"C (C = 0-10% remaining)"

* * *

biological target: GSPT1 (Homo sapiens, UniProt P15170+Q96SW2); experiment: HiBiT degradation assay, GSPT1, Procedure A; format: cell-based; design: HiBit-GSPT1 KI HEK293(LgBit) Cells; host or cells: HEK293(LgBit) knock-in cells; settings: six hours
Sequence (P15170 whole entry): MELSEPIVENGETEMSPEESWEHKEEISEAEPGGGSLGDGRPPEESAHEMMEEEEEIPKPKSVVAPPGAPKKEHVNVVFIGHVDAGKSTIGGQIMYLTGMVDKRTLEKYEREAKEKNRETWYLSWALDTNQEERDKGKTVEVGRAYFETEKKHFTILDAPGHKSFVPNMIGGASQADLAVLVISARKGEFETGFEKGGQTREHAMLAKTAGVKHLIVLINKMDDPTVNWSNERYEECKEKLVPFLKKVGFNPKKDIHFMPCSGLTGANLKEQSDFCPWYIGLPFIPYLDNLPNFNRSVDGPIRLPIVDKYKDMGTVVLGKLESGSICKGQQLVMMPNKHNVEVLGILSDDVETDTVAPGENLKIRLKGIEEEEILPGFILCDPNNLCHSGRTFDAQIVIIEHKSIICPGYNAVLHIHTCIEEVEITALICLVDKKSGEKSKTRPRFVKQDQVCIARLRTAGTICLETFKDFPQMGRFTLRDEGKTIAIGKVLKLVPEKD
Sequence (Q96SW2 whole entry): as the sequence (Q96SW2 whole entry) above
Sequence (Q16531 whole entry partner): as the sequence (Q16531 whole entry partner) above
Measured DC50 accompanies every entry in the list below.

See these solved cases before continuing.
>>> result("Cn1cc(-c2ccc3c(c2)CN(C2CCC(=O)NC2=O)C3=O)nc1-c1cc(F)cc(F)c1 (stereo not shown) [Example 555]")
"≥ 25 nM"
>>> result("Cn1cnc(-c2ccc3c(c2)CN(C2CCC(=O)NC2=O)C3=O)c1C1CCCCC1 (stereo not shown) [Example 594]")
"< 25 nM"

Q: Report DC50, nothing else, for this compound: COc1ccc(-c2c(-c3ccc4c(c3)CN(C3CCC(=O)NC3=O)C4=O)cnn2C(F)F)cc1 (stereo not shown) [Example 418]
Ans: ≥ 25 nM

Q: Tell us which DC50 value is on record for Cn1ncc(-c2ccc3c(c2)CN(C2CCC(=O)NC2=O)C3=O)c1-c1cc2ccccc2[nH]1 (stereo not shown) [Example 380]
Ans: ≥ 25 nM

* * *

target: GSPT1 (Homo sapiens, UniProt P15170+Q96SW2); assay: HiBiT degradation assay, GSPT1, Procedure A; assay type: cell-based; design: HiBit-GSPT1 KI HEK293(LgBit) Cells; host or cells: HEK293(LgBit) knock-in cells; conditions: six hours
Listed next: entries and their corresponding DC50.

>>> result("Cn1cc(-c2ccc3c(c2)CN(C2CCC(=O)NC2=O)C3=O)nc1-c1ccc(OC2CC2)cc1 (stereo not shown) [Example 581]")
"< 25 nM"
>>> result("Cc1ccc(-c2nc(-c3ccc4c(c3)CN(C3CCC(=O)NC3=O)C4=O)cn2C)cc1Cl (stereo not shown) [Example 564]")
"< 25 nM"
>>> result("Cn1ncc(-c2ccc3c(c2)CN(C2CCC(=O)NC2=O)C3=O)c1-c1cccnc1N (stereo not shown) [Example 453]")
"≥ 25 nM"
>>> result("Cc1c[nH]c2cc(-c3c(-c4ccc5c(c4)CN(C4CCC(=O)NC4=O)C5=O)ncn3C)ccc12 (stereo not shown) [Example 512]")
"< 25 nM"
>>> result("Cn1cnc(-c2ccc3c(c2)CN(C2CCC(=O)NC2=O)C3=O)c1-c1cccc(-n2cccn2)c1 (stereo not shown) [Example 516]")
"< 25 nM"

Q: Using known records, supply DC50 for Cc1occc1-c1c(-c2ccc3c(c2)CN(C2CCC(=O)NC2=O)C3=O)ncn1C (stereo not shown) [Example 483]
Ans: < 25 nM

Q: Note down DC50 recorded for Cc1cc(-c2nc(-c3ccc4c(c3)CN(C3CCC(=O)NC3=O)C4=O)cn2C)ccc1N (stereo not shown) [Example 558]
Ans: ≥ 25 nM

Q: Provide measured DC50 value, entry: Cc1c(N)cccc1-c1nc(-c2ccc3c(c2)CN(C2CCC(=O)NC2=O)C3=O)cn1C (stereo not shown) [Example 573]
Ans: < 25 nM

Q: Return DC50 (reported value) for this compound: Cn1cnc(-c2ccc3c(c2)CN(C2CCC(=O)NC2=O)C3=O)c1-c1c[nH]c2ccccc12 (stereo not shown) [Example 509]
Ans: < 25 nM

Q: Look up DC50 of [2H]C([2H])([2H])n1ncc(-c2ccc3c(c2)CN(C2CCC(=O)NC2=O)C3=O)c1-c1ccc(OC(F)F)cc1 (stereo not shown) [Example 436] and report it.
Ans: ≥ 25 nM

Q: Return DC50 for the following compound: Cn1cnc(-c2ccc3c(c2)CN(C2CCC(=O)NC2=O)C3=O)c1-c1cn[nH]c1 (stereo not shown) [Example 531]
Ans: ≥ 25 nM

Q: Look up and report measured DC50 for this entry: Cc1cccc(C)c1-c1c(-c2ccc3c(c2)CN(C2CCC(=O)NC2=O)C3=O)ncn1C (stereo not shown) [Example 442]
Ans: ≥ 25 nM

* * *

The entries below are paired with their reported DC50.
target: GSPT1 (Homo sapiens, UniProt P15170+Q96SW2); assay: HiBiT degradation assay, GSPT1, Procedure B (Molt 4_hGSPT1_HiBIT cells); format: cell-based; set-up: Molt 4_hGSPT1_HiBIT N-terminus tagged cells were generated using CRISPR technology; endogenous in cells; host or cells: Molt 4 cells, CRISPR-edited; conditions: six hours

Below: 4 compounds and their reported DC50.
>>> result("Cn1cc(-c2ccc3c(c2)CN(C2CCC(=O)NC2=O)C3=O)nc1-c1ccccc1F (centres unmarked)")
"≥ 25 nM"
>>> result("Cn1cc(-c2ccc3c(c2)CN(C2CCC(=O)NC2=O)C3=O)nc1-c1c[nH]c2ncccc12 (centres unmarked)")
"≥ 25 nM"
>>> result("Cn1cc(-c2ccc3c(c2)CN(C2CCC(=O)NC2=O)C3=O)nc1-c1ccc(CO)cc1 (centres unmarked)")
"≥ 25 nM"
>>> result("CC(C)Cc1nc(-c2ccc3c(c2)CN(C2CCC(=O)NC2=O)C3=O)c(-c2ccccc2)o1 (centres unmarked)")
"< 25 nM"

Q: Indicate its recorded DC50; the compound in question is COc1ccc(Cl)c(-c2nc(-c3ccc4c(c3)CN(C3CCC(=O)NC3=O)C4=O)cn2C)c1 (centres unmarked)
Ans: < 25 nM

Q: Tell me DC50 reported for Cn1cc(-c2ccc3c(c2)CN(C2CCC(=O)NC2=O)C3=O)nc1-c1ccc2nccn2c1 (centres unmarked)
Ans: ≥ 25 nM

Q: Recall and state the measured DC50 for Cn1cc(-c2ccc3c(c2)CN(C2CCC(=O)NC2=O)C3=O)nc1-c1cccc(F)c1F (centres unmarked) .
Ans: ≥ 25 nM

Q: State, in one line, measured DC50 of CC(C)c1nc(-c2ccc3c(c2)CN(C2CCC(=O)NC2=O)C3=O)c(-c2ccccc2)o1 (centres unmarked)
Ans: ≥ 25 nM

* * *

target: CK1α (Homo sapiens, UniProt P48729+Q96SW2); construct: CSNK1A1-HiBit KI HEK293(LgBit) Cells; host or cells: HEK293(LgBit) knock-in cells; experiment: HiBiT degradation assay, CK1α, Procedure A; type: cell-based; settings: six hours
Listed compounds paired with reported DC50

Illustrative cases are given below, each with its answer.
>>> result("Cn1cnc(-c2ccc3c(c2)CN(C2CCC(=O)NC2=O)C3=O)c1-c1ccc(N2CCOCC2)nc1 (centres unmarked)")
"≥ 25 nM"
>>> result("COc1ccc(Cl)c(-c2nc(-c3ccc4c(c3)CN(C3CCC(=O)NC3=O)C4=O)cn2C)c1 (centres unmarked)")
"< 25 nM"
>>> result("Cn1ncc(-c2ccc3c(c2)CN(C2CCC(=O)NC2=O)C3=O)c1C1=Cc2ccccc2CC1 (centres unmarked)")
"≥ 25 nM"

Q: Report value: DC50, system: CK1α (Homo sapiens, UniProt P48729+Q96SW2), compound: Cn1nc(-c2ccc3c(c2)CN(C2CCC(=O)NC2=O)C3=O)nc1N1CCOCC1 (centres unmarked)
Ans: < 25 nM

Q: Report its DC50 with CK1α (Homo sapiens, UniProt P48729+Q96SW2) as the test system: CC(C)n1nc(-c2ccccc2)nc1-c1ccc2c(c1)CN(C1CCC(=O)NC1=O)C2=O (centres unmarked)
Ans: < 25 nM

Q: // output DC50; input CC(C)Cn1cc(-c2c(-c3ccc4c(c3)CN(C3CCC(=O)NC3=O)C4=O)cnn2C)cn1 (centres unmarked) ; system CK1α (Homo sapiens, UniProt P48729+Q96SW2)
Ans: ≥ 25 nM

Q: // fetch DC50; item: O=C1CCC(N2Cc3cc(-n4cncc4-c4ccccc4)ccc3C2=O)C(=O)N1 (centres unmarked) ; system: CK1α (Homo sapiens, UniProt P48729+Q96SW2)
Ans: ≥ 25 nM

Q: # assay system CK1α (Homo sapiens, UniProt P48729+Q96SW2): give DC50 of Cn1cc(-c2ccc3c(c2)CN(C2CCC(=O)NC2=O)C3=O)nc1-c1cccc2c1CCC2 (centres unmarked)
Ans: < 25 nM

* * *

target: CK1α (Homo sapiens, UniProt P48729+Q96SW2); construct: CSNK1A1-HiBit KI HEK293(LgBit) Cells; host or cells: HEK293(LgBit) knock-in cells; test: HiBiT degradation assay, CK1α, Procedure A; format: cell-based; conditions: six hours incubation
The reader will find reported DC50 values listed item by item below.

Q: Please give measured DC50 of the following entry: Cc1ccc(F)c(-c2c(-c3ccc4c(c3)CN(C3CCC(=O)NC3=O)C4=O)ncn2C)c1 (stereo not shown)
Ans: < 25 nM

Q: Identify measured DC50 corresponding to Cn1cc(-c2ccc3c(c2)CN(C2CCC(=O)NC2=O)C3=O)nc1-c1ccccc1 (stereo not shown)
Ans: < 25 nM

Q: Name the recorded DC50 of the compound listed here: COc1cccc(-c2c(-c3ccc4c(c3)CN(C3CCC(=O)NC3=O)C4=O)ncn2C)c1Cl (stereo not shown)
Ans: < 25 nM

Q: Read off the recorded DC50 for O=C1CCC(N2Cc3cc(-c4c[nH]nc4-c4ccccn4)ccc3C2=O)C(=O)N1 (stereo not shown)
Ans: ≥ 25 nM

Q: Input Cn1cnc(-c2ccc3c(c2)CN(C2CCC(=O)NC2=O)C3=O)c1-c1cc(Cl)ccc1C#N (stereo not shown) , output reported DC50.
Ans: < 25 nM

Q: Find the measured DC50 of CN1CCN(Cc2cccc(-c3c(-c4ccc5c(c4)CN(C4CCC(=O)NC4=O)C5=O)ncn3C)c2)CC1 (stereo not shown) and report it.
Ans: ≥ 25 nM

Q: Quote DC50 reported for Cc1c(-c2c(-c3ccc4c(c3)CN(C3CCC(=O)NC3=O)C4=O)cnn2C)cnn1C (stereo not shown) please.
Ans: ≥ 25 nM

Q: Give a short answer stating reported DC50 for CC(C)c1ccc(-c2c(-c3ccc4c(c3)CN(C3CCC(=O)NC3=O)C4=O)ncn2C)cc1 (stereo not shown) .
Ans: < 25 nM

Q: Report DC50 for CNC(=O)c1cccc(-c2c(-c3ccc4c(c3)CN(C3CCC(=O)NC3=O)C4=O)cnn2C)c1 (stereo not shown)
Ans: ≥ 25 nM

Q: Provide measured DC50 value, entry: Cc1csc(-c2c(-c3ccc4c(c3)CN(C3CCC(=O)NC3=O)C4=O)cnn2C)c1 (stereo not shown)
Ans: < 25 nM

Q: Dear colleague, please send me the reported DC50 for Cc1ccc(F)c(-c2c(-c3ccc4c(c3)CN(C3CCC(=O)NC3=O)C4=O)cnn2C)c1 (stereo not shown) when you can.
Ans: < 25 nM

Q: Give DC50 for Cn1c(C2CC2)nc(-c2ccc3c(c2)CN(C2CCC(=O)NC2=O)C3=O)c1-c1cncnc1 (stereo not shown)
Ans: < 25 nM

Q: Please supply the value of reported DC50 for the item Cn1ncc(-c2ccc3c(c2)CN(C2CCC(=O)NC2=O)C3=O)c1C1CC1 (stereo not shown)
Ans: ≥ 25 nM

Q: Please supply the value of reported DC50 for the item Cn1ncc(-c2ccc3c(c2)CN(C2CCC(=O)NC2=O)C3=O)c1-c1ccc(OC(F)(F)F)cc1 (stereo not shown)
Ans: < 25 nM

Q: Query DC50 for Cc1cc(Cl)cc(-c2c(-c3ccc4c(c3)CN(C3CCC(=O)NC3=O)C4=O)ncn2C)c1 (stereo not shown)
Ans: < 25 nM
